conditions: 298.15 K; 101.33 kPa; Liquid

>  <compound>
ClCCCc1ccccc1 [(3-chloropropyl)benzene]

>  <mass density [kg/m3]>
1041.84

$$$$
>  <compound>
ClCCc1ccccc1 [(2-chloroethyl)benzene]

>  <mass density [kg/m3]>
1066.91

$$$$
>  <compound>
Cc1ccccc1 [toluene]

>  <mass density [kg/m3]>
862.19

$$$$
>  <compound>
c1ccccc1 [benzene]

>  <mass density [kg/m3]>
873.58

$$$$
>  <compound>
CCCc1ccccc1 [propylbenzene]

>  <mass density [kg/m3]>
857.62

$$$$
>  <compound>
Clc1ccccc1 [chlorobenzene]

>  <mass density [kg/m3]>
1101.17

$$$$
>  <compound>
CCCCc1ccccc1 [butylbenzene]

>  <mass density [kg/m3]>
856.29

$$$$
>  <compound>
CCc1ccccc1 [ethylbenzene]

>  <mass density [kg/m3]>
862.55

$$$$
>  <compound>
ClCc1ccccc1 [(chloromethyl)benzene]

>  <mass density [kg/m3]>
1094.82

$$$$
